Origin of values: patent US20160052926A1

System: RT-112
experimental.details: Cellular Proliferation Assay (Cell Counting Kit-8), RT-112
Assay type: cell-based
settings: Homo sapiens, RT-112 cells, 72 hours
pIC50: −log10 of the molar value.
Label Not met if pIC50 falls below 7; label Met in every other case.

{"smi": "CNC(=O)c1cc(CCc2cnc(Nc3ccc4nc(C)oc4c3)nc2)c(F)c(OC)c1", "tested.target": "RT-112", "group.label": "Not met"}
{"smi": "CNC(=O)c1cc(COc2cnc(Nc3cnn(C)c3)nc2)c(F)c(OC)c1", "tested.target": "RT-112", "group.label": "Met"}
{"smi": "CNC(=O)c1cc(CCc2cnc(Nc3ccc4c(c3)OCO4)nc2)c(F)c(OC)c1", "tested.target": "RT-112", "group.label": "Not met"}
{"smi": "CNC(=O)c1cc(CCc2cnc(Nc3ccc4nncn4c3)nc2)c(F)c(OC)c1", "tested.target": "RT-112", "group.label": "Not met"}
{"smi": "CNC(=O)c1cc(CCc2cnc(Nc3ccc(N4C[C@@H](C)N[C@@H](C)C4)c(C)c3)nc2)c(Cl)c(OC)c1", "tested.target": "RT-112", "group.label": "Met"}
{"smi": "CCn1cc(Nc2ncc(OCc3c(F)c(OC)cc(C(=O)NC)c3F)cn2)cn1", "tested.target": "RT-112", "group.label": "Met"}
{"smi": "CNC(=O)c1cc(CCc2cnc(Nc3cnn(CCOC)c3)nc2)c(F)c(OC)c1", "tested.target": "RT-112", "group.label": "Not met"}
{"smi": "CCONC(=O)c1cc(CCc2cnc(Nc3ccc(N4CCN(CC)CC4)cc3)nc2)cc(OC)c1", "tested.target": "RT-112", "group.label": "Not met"}
{"smi": "COc1cc(C(=O)NC2CC2)cc(CCc2cnc(Nc3cnn(C)c3)nc2)c1Cl", "tested.target": "RT-112", "group.label": "Not met"}
{"smi": "CNC(=O)c1cc(OC)c(F)c(COc2cnc(Nc3ccc(N4C[C@@H](C)N[C@@H](C)C4)cc3)nc2)c1F", "tested.target": "RT-112", "group.label": "Met"}
{"smi": "CNC(=O)c1cc(CCc2cnc(Nc3cnn(Cc4ccccn4)c3)nc2)c(F)c(OC)c1", "tested.target": "RT-112", "group.label": "Not met"}
